# System: Plasmodium falciparum
# procedure text: GSK_TCMDC: Inhibition of Plasmodium falciparum 3D7 in whole red blood cells, using parasite LDH activity as an index of growth. Test compounds present at 2uM
# Assay type: functional
# Inhibition per entry
Write the number in % without appending the unit.

Record `COc1ccc2c(=NN=Cc3ccc(F)cc3)cc(C)[nH]c2c1` , field Inhibition: 100

Next:
Given item CN1CCCC(CN2CCN(Cc3cccc(-c4cccc(-c5nc6ccccc6[nH]5)c4)c3)CC2)C1.O=C(O)C(F)(F)F (configuration not stated) , the value recorded as its Inhibition is 100

`O=C(NCCCCCN1CCC(c2c[nH]c3ccccc23)CC1)c1ccc(-c2ccccc2)nc1` has a reported Inhibition of 87

Inhibition in this record for `Cc1noc(C)c1-c1ccc2c(Nc3cccc4c3-c3ccccc3C4=O)c(C(=O)NCc3ccccc3I)cnc2c1` : 99

What the record says about `CNC(=O)Cc1ccc(C(=O)Nc2cccc(-c3csc(-c4nc5ccccc5[nH]4)c3)c2)cc1` : Inhibition is 95

The recorded Inhibition for `COc1cccc(CNC(=O)[C@H]2CNCCN2C(=O)CCCc2ccccc2)c1.O=C(O)C(F)(F)F` is 91

###

# System: HepG2
# procedure text: GSK_TCMDC: Percent inhibition of human HepG2 cell line. Test compounds present at 10uM.
# Format: functional
Each entry below carries its reported Inhibition.
# output: bare number, implied unit %

Examples with answers:
# molecule `CCCCCNC(=N)c1ccc(OCCCCCOc2ccc(C(=N)NCCCCC)cc2)cc1.Cl` ; its Inhibition = 3

Sure, the documented Inhibition for `CCc1nc2nc(C)cc(Nc3cc(C)cc(C)c3)n2n1` is 21

`CCc1ccc(CN2CCC(NC(=O)c3ccc(-c4ccc(N(C)C)cc4)s3)CC2)cc1.O=C(O)C(F)(F)F` has a reported Inhibition of 52

Further cases:
GET /value?item= `CCc1ccc(C2CCN(CCCCNC(=O)c3ccc(NC(=O)c4ccc(Cl)cc4)cc3)CC2)cc1` &field=Inhibition returns 15

What the record says about `CCCCCCCOc1ccc(NC(=O)Nc2ccc(Cn3ncc(N4CCCNCC4)c(Cl)c3=O)cc2)cc1.O=C(O)C(F)(F)F` : Inhibition is 60

###

# System: Plasmodium falciparum
# procedure text: GSK_TCMDC: Inhibition of Plasmodium falciparum 3D7 in whole red blood cells, using parasite LDH activity as an index of growth. Test compounds present at 2uM
# Type: functional
test readout: Inhibition (%)
I only need the number, in %, no unit after it.

Take a look at these entries with their results.
Looking up `COc1ccc2nccc([C@@H](O)CN3CCC(NCc4ccc5c(c4)nnn5C(C)C)CC3)c2c1.O=C(O)C(=O)O` , I see its Inhibition listed as 100

Value of measured Inhibition for the entry `COC(=O)c1cccc(CNCc2ccc(-c3cccc(-c4nc5cccc(C)c5[nH]4)c3)cc2)c1.O=C(O)C(F)(F)F` : 100

Record `Cn1cccc1CCNCc1ccc(-c2cccc(-c3nc4ccccc4[nH]3)c2)cc1.O=C(O)C(F)(F)F` , field Inhibition: 88

Summary for this molecule, `Cc1ccc(OCCCCONC(=O)c2ccccc2)cc1` : Inhibition is 96

For record `COc1ccc(CNC(=O)c2cnc3cc(-c4c(C)noc4C)ccc3c2Nc2ccccc2C(C)(C)C)cc1.Cl` the listed Inhibition is 99

Summary for this molecule, `O=C(CSc1nccn1C1CCCC1)Nc1cc(C(F)(F)F)ccc1Cl` : Inhibition is 96

Summary for this molecule, Cc1cc(OCCCN2CCC(NS(=O)(=O)c3cccc(Br)c3)C2)c2ccccc2n1 (configuration not stated) : Inhibition is 86

molecule `Cn1cccc1CCNCc1ccc(-c2cccc(-c3nc4cc(F)ccc4[nH]3)c2)cc1.O=C(O)C(F)(F)F` , Inhibition observed: 93

The reported Inhibition of the molecule `FC(F)(F)c1ccc(CNC2CCN(CC3CCCCC3)CC2)cc1.O=C(O)C(F)(F)F` was 87

The molecule `Nc1cccc(CNCc2ccc(-c3cccc(-c4nc5cc(F)ccc5[nH]4)c3)cc2)c1.O=C(O)C(F)(F)F` showed Inhibition equal to 100

Others:
Item: `O=C(Nc1ccc(Cl)cc1)N[C@H]1CCN(Cc2ccc(OCCCN3CCCCC3)cc2)C1` | Inhibition: 100

Briefly, Inhibition measured for CCc1c(C(=O)NC2CCC(N3CCC(c4ccccc4C)CC3)CC2)[nH]c2ccc(OC)cc12 (configuration not stated) : 100

Summary for this molecule, `O=C(Nc1nccs1)c1cc(-c2cccnc2)nc2ccc(Br)cc12` : Inhibition is 100

For this molecule ( CC(NCC(O)Cn1c2ccccc2c2ccccc21)c1ccccc1.O=C(O)c1ccccc1 (configuration not stated) ), measured Inhibition is 96

# molecule `Cc1[nH]c(C)c(-c2ccc(OCc3ccc(F)cc3)nc2)c(=O)c1Br` ; its Inhibition = 97

What the record says about `Cc1cccc2nc(-c3ccc(-c4ccc(CNCc5cnn(-c6ccccc6)n5)cc4)cc3)[nH]c12.O=C(O)C(F)(F)F` : Inhibition is 100

Reported Inhibition ( `Cc1cc(-c2cccc(CNCCc3ccc(Cl)cc3)c2)cnc1N.Cl` ) = 90

response.value for `CN1CCCN(Cc2ccc(-c3cccc(NC(=O)c4cccc(F)c4)c3)cc2)CC1.O=C(O)C(F)(F)F` (field: Inhibition) = 91

Looking up `CNC(=N)c1ccc(NC(=O)c2ccc(C(=O)Nc3ccc(C(=N)NC)cc3)cc2)cc1.Cl` , I found its Inhibition recorded as 96

Reported Inhibition of `CC(C)NCc1ccc(-c2cccc(NC(=O)c3cccc(Cl)c3)c2)cc1.O=C(O)C(F)(F)F` : 100

For record `COc1ccc(NC(=O)/C=C/c2ccccc2Cl)cc1OCCN1CCC(NC2CC2)CC1` the listed Inhibition is 100

Just so you know, measured Inhibition for CCCN1CCN(CC(O)CNC(=O)Nc2ccc(Br)cc2)CC1.O=C(O)C(F)(F)F (configuration not stated) came out at 100

Form: molecule = `O=C(Nc1ccc(Br)cc1)Nc1ccc(Cn2ncc(N3CCCNCC3)c(Cl)c2=O)cc1.O=C(O)C(F)(F)F` ; Inhibition = 87

Lookup result for `COc1ccc(CC(=O)Nc2ccc(Nc3nc(C)cc(N(C)C)n3)cc2)cc1` ; measured Inhibition: 97

# Inhibition of `Cl.Nc1c2c(nc3cc(NC(=O)c4ccc([N+](=O)[O-])cc4)ccc13)CCCC2` = 100

Inhibition reading for `CCCOc1ccc2ccccc2c1CNCCCCCCNCc1c(OCCC)ccc2ccccc12.CS(=O)(=O)O` : 94

For `c1ccc(COc2ccc(Nc3ncnc4cnc(-c5ccc(CNc6cccnc6)o5)cc34)cc2)cc1` the molecule record lists Inhibition as 96

###

The entries below are paired with their reported Inhibition.
# Test system: Plasmodium falciparum
# procedure text: GSK_TCMDC: Inhibition of Plasmodium falciparum 3D7 in whole red blood cells, using parasite LDH activity as an index of growth. Test compounds present at 2uM
# Assay type: functional
Give your result in % as a bare value.

Plasmodium falciparum Inhibition of `CCOC(=O)c1ccc(-n2c(C)cc(C=C3SC(=Nc4ccccc4)N(C4CCCC4)C3=O)c2C)cc1` is 98

Query OC(c1cccc2ccccc12)C1CN(CCc2ccccc2)CCC1(O)c1ccccc1 (configuration not stated) on Plasmodium falciparum; Inhibition returned: 99

Noted Inhibition for `COc1ccc2nc(-c3cc(-c4ccc(NC(=O)C(C)C)cc4)cnc3N)[nH]c2c1` , tested on Plasmodium falciparum: 100

Lab entry: Plasmodium falciparum assay, molecule `COc1cc(CNC[C@@H](O)[C@H](Cc2ccccc2)NC(=O)c2cc(C3CCCC3)cc(N3CCCS3(=O)=O)c2)cc(OC)c1.Cl` , Inhibition = 95

Plasmodium falciparum assay, molecule O=C(Nc1ccc(OC2CCN(Cc3ccco3)C2)c(Cl)c1)c1ccc2ncccc2c1.O=C(O)C(F)(F)F (configuration not stated) , recorded Inhibition = 92

---
`Cc1sc(NC(=O)c2ccc([N+](=O)[O-])cc2Cl)c(C(N)=O)c1C` tested on Plasmodium falciparum gave Inhibition: 94

Let me check: `O=C(Cc1ccc(Cl)cc1)Nc1cc(Cl)ccc1Cn1cnc(N2CCNCC2)cc1=O.O=C(O)C(F)(F)F` , system Plasmodium falciparum, measured Inhibition is 97

###

# Test system: Plasmodium falciparum
# procedure text: GSK_TCMDC: Inhibition of Plasmodium falciparum 3D7 in whole red blood cells, using parasite LDH activity as an index of growth. Test compounds present at 2uM
# Format: functional
Measured Inhibition, listed per entry.
Just so you know, I need the unit written after the number.

Record `COc1ccc(NS(=O)(=O)c2ccc(Oc3nc(C)nc4sc5c(c34)CCCC5)cc2)cc1` / Plasmodium falciparum, Inhibition recorded as 96%

Reported Inhibition (Plasmodium falciparum) for entry CC(Sc1nnc(-c2ccccc2Br)[nH]1)C(=O)Nc1ccc(F)cc1 (stereo not given) is 90%

Others:
Note to self: Inhibition of `O=C(NCCCCN1CCC(c2ccc(Br)cc2)CC1)c1ccc(NC(=O)c2ccc(Cl)cc2)cc1` with Plasmodium falciparum was 100%

Noted Inhibition for `Cc1ccc(O)cc1Nc1ccnc2ccc(-c3cccc(CN(C)C)c3)cc12` , tested on Plasmodium falciparum: 100%

Reported Plasmodium falciparum Inhibition for item `COc1ccc(NC(=O)Nc2ccc(C)c(-c3ccc(C(=O)Nc4ccncc4)cc3)c2)cc1` was 99%
